target: T1, CD3 epsilon homodimer protein (UniProt P07766 23-126); test: SPR, antibody over immobilised CD3e homodimer;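 note: SPR at 25 °C with CD3 epsilon homodimer amine-coupled to a CM4 sensor chip and antibody flowed over as analyte in HBS-EP+ running buffer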
T1 construct: also called CD3 (CD3 epsilon)
T1 sequence (P07766 23-126): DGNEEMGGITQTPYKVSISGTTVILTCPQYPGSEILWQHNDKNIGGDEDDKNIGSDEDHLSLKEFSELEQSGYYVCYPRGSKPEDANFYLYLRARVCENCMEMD
Here the recorded KD ratio to GLS3000 is given for each entry.

BINDER: CE115HA000/GLS3000 R54T (antibody, IgG1, name in Kabat numbering, V domains shown, one-arm IgG1) VH: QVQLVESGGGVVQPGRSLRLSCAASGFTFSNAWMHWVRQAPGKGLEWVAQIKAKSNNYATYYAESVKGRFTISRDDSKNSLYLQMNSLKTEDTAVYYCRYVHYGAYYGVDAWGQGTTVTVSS VL: DIVMTQSPLSLPVTPGEPASISCRSSQSLVHSNRNTYLHWYQQKPGQAPRLLIYKVSNTFSGVPDRFSGSGSGTDFTLKISRVEAEDVGVYYCGQGTQVPYTFGQGTKLEIK
KD ratio to GLS3000: 0.89

BINDER: CE115HA000/GLS3000 S27aE (antibody, IgG1, name in Kabat numbering, V domains shown, one-arm IgG1) VH: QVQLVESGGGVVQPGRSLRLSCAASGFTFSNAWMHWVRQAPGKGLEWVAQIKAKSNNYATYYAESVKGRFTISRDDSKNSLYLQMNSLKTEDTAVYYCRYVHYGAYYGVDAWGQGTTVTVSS VL: DIVMTQSPLSLPVTPGEPASISCRSSQELVHSNRNTYLHWYQQKPGQAPRLLIYKVSNRFSGVPDRFSGSGSGTDFTLKISRVEAEDVGVYYCGQGTQVPYTFGQGTKLEIK
KD ratio to GLS3000: 0.94
